These measurements were taken from paper PMC9939292.

biological target: recombinant GRP78 protein (Homo sapiens); construct: recombinant GRP78; assay: isothermal titration calorimetry; also SPR small molecule microarray
Sequence (P11021 19-654): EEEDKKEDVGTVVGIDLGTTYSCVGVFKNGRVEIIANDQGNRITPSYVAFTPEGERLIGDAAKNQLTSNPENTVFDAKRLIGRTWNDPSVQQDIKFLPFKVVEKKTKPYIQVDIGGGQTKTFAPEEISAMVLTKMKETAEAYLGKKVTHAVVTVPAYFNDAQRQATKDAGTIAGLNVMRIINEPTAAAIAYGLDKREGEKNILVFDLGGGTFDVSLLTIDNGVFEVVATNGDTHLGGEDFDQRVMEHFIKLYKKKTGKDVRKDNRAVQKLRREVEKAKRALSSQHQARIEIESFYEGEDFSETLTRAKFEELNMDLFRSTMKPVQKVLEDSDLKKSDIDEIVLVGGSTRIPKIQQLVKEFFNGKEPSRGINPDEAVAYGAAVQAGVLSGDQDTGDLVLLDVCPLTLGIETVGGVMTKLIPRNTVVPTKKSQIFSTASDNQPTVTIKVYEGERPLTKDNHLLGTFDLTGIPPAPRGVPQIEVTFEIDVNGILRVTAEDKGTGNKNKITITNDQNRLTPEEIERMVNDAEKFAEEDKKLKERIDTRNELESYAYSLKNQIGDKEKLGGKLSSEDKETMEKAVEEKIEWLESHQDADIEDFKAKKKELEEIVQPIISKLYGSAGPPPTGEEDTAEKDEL
pKd: −log10 of the molar value.
Quantity name: pKd

{"columns": ["Compound structure", "Test value"],
 "data": [
  ["CO/N=C(\\C(=O)N[C@@H]1C(=O)N2C(C(=O)[O-])=C(C[n+]3ccc(N)n3CCO)CS[C@H]12)c1csc(N)n1", 6.33]
]}
